assay: Neurotoxicity test (Rotarod test); assay type: in vivo; settings: KM, mouse, in vivo, po
Property Name: TD50 (mg/kg)
Numbers only, in mg/kg.

Memo: COc1cc(OC)c(OC)cc1/C=C/COC(=O)/C=C/c1cc(OC)c(OC)c(OC)c1 , reported TD50: 940
